- Target system: CDK8/Cyclin C (Homo sapiens, UniProt P49336)
- Sequence (P49336 whole entry): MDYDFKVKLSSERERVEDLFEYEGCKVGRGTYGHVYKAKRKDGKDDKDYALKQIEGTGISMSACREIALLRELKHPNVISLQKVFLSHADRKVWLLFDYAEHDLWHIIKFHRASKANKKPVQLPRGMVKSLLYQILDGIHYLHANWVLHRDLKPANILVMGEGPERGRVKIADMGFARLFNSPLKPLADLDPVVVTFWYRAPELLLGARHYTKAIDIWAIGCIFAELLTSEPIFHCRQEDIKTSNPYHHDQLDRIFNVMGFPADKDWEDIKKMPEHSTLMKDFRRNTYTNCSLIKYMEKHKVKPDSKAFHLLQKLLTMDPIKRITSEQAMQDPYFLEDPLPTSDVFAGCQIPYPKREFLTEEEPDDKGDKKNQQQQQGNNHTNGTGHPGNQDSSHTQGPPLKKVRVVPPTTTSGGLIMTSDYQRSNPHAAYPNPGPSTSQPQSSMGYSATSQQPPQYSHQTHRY
- Sequence (P24863 whole entry partner): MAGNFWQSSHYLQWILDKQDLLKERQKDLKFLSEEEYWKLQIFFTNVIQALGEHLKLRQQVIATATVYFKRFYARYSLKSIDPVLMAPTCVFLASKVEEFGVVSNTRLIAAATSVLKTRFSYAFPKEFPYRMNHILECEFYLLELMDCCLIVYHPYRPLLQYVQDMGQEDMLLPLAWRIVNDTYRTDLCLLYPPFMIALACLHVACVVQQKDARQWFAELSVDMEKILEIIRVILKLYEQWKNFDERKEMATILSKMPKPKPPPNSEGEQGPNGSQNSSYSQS
- Assay procedure: CDK8/Cyclin C LANCE TR-FRET kinase assay
- Condition context: CDK8/Cyclin C 10 nM, ATP 24 μM, Ulight-GS peptide 80 nM, 37° C. 30 mins
pIC50: −log10 of the molar value.
Please use satisfied whenever pIC50 is not below 8, and not satisfied whenever it is.

Take a look at these entries with their results.
> print(dat)
                                    compound  assigned.category
 1  CC(=O)NC[C@H](Nc1cncc(-c2ccc3[nH]ncc3c2)c1)c1ccccc1          satisfied
 2  CS(=O)(=O)c1n[nH]c2ccc(-c3cncc(N[C@@H](CO)c4ccccc4)c3)cc12          satisfied
 3  O=C1Cc2cc(-c3cncc(N[C@@H](CO)c4ccccc4)c3)cc(F)c2N1      not satisfied
 4  OC[C@H](Nc1cncc(-c2cc3cn[nH]c3cn2)c1)c1ccccc1          satisfied
 5  Cc1n[nH]c2ccc(-c3cncc(N[C@@H](CNS(C)(=O)=O)c4ccccc4)c3)cc12          satisfied
 6  Cc1n[nH]c2ccc(-c3cncc(N[C@H](C(N)=O)c4ccccc4)c3)cc12          satisfied
 7  OC[C@H](Nc1cncc(-c2cccc3[nH]ccc23)c1)c1ccccc1      not satisfied
 8  O=c1[nH]c2ccc(-c3cncc(N[C@@H](CO)c4ccccc4)c3)cc2[nH]1          satisfied
 9  OC[C@H](Nc1cncc(-c2ccc3[nH]nc(F)c3c2)c1)c1ccccc1          satisfied
10  NC(=O)C(Nc1cncc(-c2ccc3c(c2)CNC3=O)c1)c1ccccc1 (stereo not shown)      not satisfied

Does the compound CC1(C)C(=O)Nc2ccc(-c3cncc(N[C@@H](CO)c4ccccc4)c3)cc21 have recorded pIC50 that is 8 or more?
not satisfied

Does the compound O=C1Cc2cc(-c3cncc(N[C@@H](CO)c4ccccc4)c3)c(F)cc2N1 have recorded pIC50 that is 8 or more?
satisfied

Does the compound NC(=O)C(Nc1cncc(-c2ccc3[nH]ncc3c2)c1)c1ccccc1 (stereo not shown) have recorded pIC50 that is 8 or more?
satisfied

Does the compound Cc1n[nH]c2ccc(-c3cncc(N[C@@H](CNCCO)c4ccccc4)c3)cc12 have recorded pIC50 that is 8 or more?
satisfied

Does the compound O=C1Cc2cc(-c3cncc(N[C@H](CO)c4ccccc4Cl)c3)ccc2N1 have recorded pIC50 that is 8 or more?
not satisfied

Does the compound NC(=O)[C@H](Nc1cncc(-c2ccc3[nH]ncc3c2)c1)c1ccccc1 have recorded pIC50 that is 8 or more?
satisfied

Does the compound O=C1Cc2cc(-c3cncc(N[C@@H](CO)c4ccccc4)c3)ccc2N1 have recorded pIC50 that is 8 or more?
satisfied

Does the compound Cc1n[nH]c2ccc(-c3cncc(N[C@@H](C(N)=O)c4ccccc4)c3)cc12 have recorded pIC50 that is 8 or more?
satisfied

Does the compound O=C1Nc2ccc(-c3cncc(N[C@@H](CO)c4ccccc4)c3)cc2C1(F)F have recorded pIC50 that is 8 or more?
not satisfied

Does the compound OC[C@H](Nc1cncc(-c2cnc3[nH]ncc3c2)c1)c1ccccc1 have recorded pIC50 that is 8 or more?
satisfied

Does the compound O=C1Nc2ccc(-c3cncc(N[C@@H](CO)c4ccccc4)c3)cc2C12CC2 have recorded pIC50 that is 8 or more?
satisfied

Does the compound NC(=O)C(Nc1cncc(-c2ccc3[nH]nc(F)c3c2)c1)c1ccccc1 (stereo not shown) have recorded pIC50 that is 8 or more?
satisfied

Does the compound CC(=O)NC[C@H](Nc1cncc(-c2ccc3c(c2)CC(=O)N3)c1)c1ccccc1 have recorded pIC50 that is 8 or more?
not satisfied

Does the compound O=c1[nH]c2ccc(-c3cncc(N[C@@H](CO)c4ccccc4)c3)cc2o1 have recorded pIC50 that is 8 or more?
satisfied

Does the compound NC(=O)[C@H](Nc1cncc(-c2ccc3[nH]nc(Cl)c3c2)c1)c1ccccc1 have recorded pIC50 that is 8 or more?
satisfied

Does the compound Cc1n[nH]c2ccc(-c3cncc(N[C@@H](CNS(=O)(=O)C4CC4)c4ccccc4)c3)cc12 have recorded pIC50 that is 8 or more?
satisfied

Does the compound O=C(CO)NC[C@H](Nc1cncc(-c2ccc3[nH]nc(F)c3c2)c1)c1ccccc1 have recorded pIC50 that is 8 or more?
satisfied

Does the compound O=C1Cc2cc(-c3cncc(N[C@@H](CO)c4ccccc4)c3)cnc2N1 have recorded pIC50 that is 8 or more?
not satisfied

Does the compound CSc1n[nH]c2ccc(-c3cncc(N[C@@H](CO)c4ccccc4)c3)cc12 have recorded pIC50 that is 8 or more?
satisfied

====

- System: SW-837 (colorectal cancer)
- Assay procedure: In vitro cell proliferation assay (CCK-8), SW-837
- Assay type: cell-based
- Condition context: Homo sapiens, SW837, SW-837 cells, 72 hours
Entries and their IC50
API: value field is a number in µM; no unit string.

> print(dat)
                                   compound               target.system  uom  assay.result
1  OC[C@H](Nc1cncc(-c2ccc3[nH]ncc3c2)c1)c1ccccc1 [Example 16]  SW-837 (colorectal cancer)   µM         0.091

Consider the record given below.
O=C1Cc2cc(-c3cncc(N[C@@H](CO)c4ccccc4)c3)ccc2N1 [Example 1] yielded IC50 of 2.3

====

- Target system: CDK8/Cyclin C (Homo sapiens, UniProt P49336)
- Assay procedure: CDK8/Cyclin C LANCE TR-FRET kinase assay
- Condition context: CDK8/Cyclin C 10 nM, ATP 24 μM, Ulight-GS peptide 80 nM, 37° C. 30 mins
Category key, based on recorded IC50: band 1 = under 2 nM, band 2 = from 2 nM up to 50 nM, band 3 = 50 nM and over

Take a look at these entries with their results.
> print(dat)
                                   compound  assigned.category
1  COCCNC[C@H](Nc1cncc(-c2ccc3[nH]nc(F)c3c2)c1)c1ccccc1             band 2
2  OC[C@H](Nc1cncc(-c2ccc3c(c2)OCCO3)c1)c1ccccc1             band 3
3  OC[C@H](Nc1cncc(-c2ccc3[nH]ncc3n2)c1)c1ccccc1             band 2
4  NC(=O)C(Nc1cncc(-c2ccc3c(c2)OCO3)c1)c1ccccc1 (centres unmarked)             band 3

Which class is correct for the following compound? NC(=O)C(Nc1cncc(-c2cc3c(cc2F)NC(=O)CC3)c1)c1ccccc1 (centres unmarked)
band 3

Which class is correct for the following compound? Cc1n[nH]c2ccc(-c3cncc(N[C@@H](CNC(=O)c4ccccc4)c4ccccc4)c3)cc12
band 2

Which class is correct for the following compound? Nc1n[nH]c2ccc(-c3cncc(N[C@@H](CO)c4ccccc4)c3)cc12
band 1

Which class is correct for the following compound? Cc1n[nH]c2ccc(-c3cncc(N[C@@H](CNC(=O)CO)c4ccccc4)c3)cc12
band 1

Which class is correct for the following compound? OC[C@H](Nc1cncc(-c2ccc3[nH]nc(Cl)c3c2)c1)c1ccccc1
band 1

Which class is correct for the following compound? CC1(C)C(=O)Nc2ccc(-c3cncc(NC(C(N)=O)c4ccccc4)c3)cc21 (centres unmarked)
band 3

Which class is correct for the following compound? O=C1Cc2cc(-c3cncc(N[C@@H](CO)c4ccccc4Cl)c3)ccc2N1
band 2

Which class is correct for the following compound? NC(=O)C(Nc1cncc(-c2ccc3c(c2)CC(=O)N3)c1)c1ccccc1 (centres unmarked)
band 3

Which class is correct for the following compound? O=C1Cc2nc(-c3cncc(N[C@@H](CO)c4ccccc4)c3)ccc2N1
band 3

Which class is correct for the following compound? CS(=O)(=O)NC[C@H](Nc1cncc(-c2ccc3[nH]ncc3c2)c1)c1ccccc1
band 1

====

Entries and their pIC50
- Target system: CDK8/Cyclin C (Homo sapiens, UniProt P49336)
- Assay procedure: CDK8/Cyclin C LANCE TR-FRET kinase assay
- Condition context: CDK8/Cyclin C 10 nM, ATP 24 μM, Ulight-GS peptide 80 nM, 37° C. 30 mins
- From the text: CDK8/Cyclin C LANCE TR-FRET Kinase Assay: The biological activity of the compounds of the invention can be determined using the assay described below. CDK8/Cyclin C protein was obtained from Invitrogen, cat #PV4402. ULight-Glycogen Synthase (Ulight-GS) peptide with sequence PASVPPSPSLSRHSSPHQ(pS)ED, and Europium-anti-phospho Glycogen Synthase (Ser641) [Eu-anti-P-GS (Ser641)] were obtained from Perkin Elmer, cat #TRF0131-M and cat #TRF0220. […]
Please treat pIC50 as minus the base-10 logarithm of the molar concentration.

Observe how each entry below is paired with its result.
> print(dat)
                               smiles.entry  endpoint.label  assay.result
1  NC(=O)[C@@H](Nc1cncc(-c2ccc3[nH]ncc3c2)c1)c1ccccc1           pIC50          8.06
2  OC[C@H](Nc1cncc(-c2ccc3[nH]nnc3c2)c1)c1ccccc1           pIC50          8.03
3  NC(=O)[C@@H](Nc1cncc(-c2ccc3[nH]nc(Cl)c3c2)c1)c1ccccc1           pIC50          8.04
4  O=c1[nH]c2ccc(-c3cncc(N[C@@H](CO)c4ccccc4)c3)cc2s1           pIC50          8.11

The recorded pIC50 with CDK8/Cyclin C (Homo sapiens, UniProt P49336) for COCCNC[C@H](Nc1cncc(-c2ccc3[nH]nc(C)c3c2)c1)c1ccccc1 was 8.02
